# target or system: HLA-A*02:03
# experimental details: IEDB peptide-MHC binding, purified MHC/competitive/radioactivity; filed as Kd, often an IC50 or EC50 that approximates it; bounds were set here for any values at or beyond the usual limits of such assays
# run conditions: source organism: Variola virus
pKd: −log10 of the molar value.
measured quantity: pKd

| primary sequence | measured quantity | observed |
| --- | --- | --- |
| MILVPLITV | pKd | 7.53 |

###

# target or system: HLA-B*27:05
# experimental details: IEDB peptide-MHC binding, purified MHC/direct/fluorescence; filed as Kd, often an IC50 or EC50 that approximates it; bounds were set here for any values at or beyond the usual limits of such assays
# run conditions: source organism: Listeria monocytogenes

| primary sequence | Kd |
| --- | --- |
| KRYKQMCTK | 177 nM |
